Reported values of Kd for individual entries
study-target: eukaryotic initiation factor (elF4E) (Homo sapiens, UniProt P06730)
Sequence (P06730 whole entry): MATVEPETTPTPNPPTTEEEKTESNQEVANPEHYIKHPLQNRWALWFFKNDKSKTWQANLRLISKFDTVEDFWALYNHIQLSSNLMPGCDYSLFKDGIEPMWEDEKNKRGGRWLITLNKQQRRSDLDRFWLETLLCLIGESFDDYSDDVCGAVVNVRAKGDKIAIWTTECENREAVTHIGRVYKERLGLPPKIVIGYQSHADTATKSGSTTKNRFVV
experiment: Assay of binding ability to eukaryotic initiation factor (elF4E), Biacore T100
protocol-conditions: cap analog to elF4E protein; running buffer pH 6.0 or 7.4; read-out: Binding constant (converted)
result-type: Kd

compound="COC1C(OP(=O)(O)OC[C@H]2O[C@@H](n3cnc4c(=O)[nH]c(N)nc43)C(O)C2O)[C@@H](COP(=O)(O)OP(=O)(O)OP(=O)(O)/C=C/[C@H]2O[C@@H](n3c[n+](C)c4c(=O)[nH]c(N)nc43)C(F)C2O)O[C@H]1n1cnc2c(N)ncnc21 (some centres unmarked)" result_type=Kd reported="269 nM"
compound="COC1C(OP(=O)(O)OC[C@H]2O[C@@H](n3cnc4c(=O)[nH]c(N)nc43)C(O)C2O)[C@@H](COP(=O)(O)OP(=O)(O)OP(=O)(O)/C=C/[C@H]2O[C@@H](n3c[n+](C)c4c(=O)[nH]c(N)nc43)C(O)C2CN(C)C(C)=O)O[C@H]1n1cnc2c(N)ncnc21 (some centres unmarked)" result_type=Kd reported="239 nM"

src = patent US20260176275A1
